target: USP8 Rhod domain (Homo sapiens); construct: USP8 Rhod (174–317) (UniProt: P40818); GST (cleaved yes); made in house; host or cells: Escherichia coli BL21-Gold (DE3); experiment: Peptide-phage display-based deep mutational scanning (DMS), USP8 Rhod domain; format: binding; conditions: ProP-PD pairs, bait USP8_Rhodanese__P40818_174_317; wild-type/mutant pair, wild type KIAA1614 569-584 GMERVLGGLSSPLRLL (wt_00013)
Rule: hit_pair_ratio under 3 gives Condition not met, otherwise Condition met.

As a guide, the following entries are already answered.
>  <seqText>
GMEAVLGGLSSPLRLL

>  <assayTarget>
USP8 Rhod domain (Homo sapiens)

>  <discreteLabel>
Condition met

$$$$
>  <seqText>
MMERVLGGLSSPLRLL

>  <assayTarget>
USP8 Rhod domain (Homo sapiens)

>  <discreteLabel>
Condition met

$$$$
>  <seqText>
GDERVLGGLSSPLRLL

>  <assayTarget>
USP8 Rhod domain (Homo sapiens)

>  <discreteLabel>
Condition not met

$$$$

Ask: Determine whether measured hit_pair_ratio meets or exceeds 3 for GMERGLGGLSSPLRLL
Reply: Condition not met

Ask: Given GMERALGGLSSPLRLL , state whether its hit_pair_ratio is at least 3.
Reply: Condition met

----------
proportion of amino acid at position 10 (wt S) values for the substances below.
Molecular target: USP8 Rhod domain (Homo sapiens, UniProt P40818)
Construct: USP8 Rhod (174–317) (UniProt: P40818); GST (cleaved yes); made in house; host or cells: Escherichia coli BL21-Gold (DE3)
Sequence (P40818 174-317): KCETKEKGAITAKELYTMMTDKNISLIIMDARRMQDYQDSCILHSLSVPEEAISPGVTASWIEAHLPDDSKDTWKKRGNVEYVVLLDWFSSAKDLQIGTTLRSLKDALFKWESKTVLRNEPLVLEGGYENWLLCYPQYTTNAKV
Test: Peptide-phage display-based deep mutational scanning (DMS), USP8 Rhod domain
Assay type: binding
Details: PSSM, library USP8_DMS, days 2,3; position 10

>  <substance>
KIAA1614_Q5VZ46_569_584 S10H (MERVLGGLSHPLRLLP; UniProt Q5VZ46 569-584, looked up, variant S10H)

>  <result>
0.41

$$$$

Ask: Any idea what proportion of amino acid at position 10 (wt S) was measured for KIAA1614_Q5VZ46_569_584 S10I (MERVLGGLSIPLRLLP; UniProt Q5VZ46 569-584, looked up, variant S10I) ?
Reply: 0.00245

Ask: I have this substance here, KIAA1614_Q5VZ46_569_584 S10E (MERVLGGLSEPLRLLP; UniProt Q5VZ46 569-584, looked up, variant S10E) , and I need its recorded proportion of amino acid at position 10 (wt S).
Reply: 0.00734

Ask: proportion of amino acid at position 10 (wt S) lookup needed for KIAA1614_Q5VZ46_569_584 S10V (MERVLGGLSVPLRLLP; peptide 569-584; UniProt Q5VZ46 569-584, looked up, variant S10V) , thanks.
Reply: 0.00172

----------
target: USP8 Rhod domain (Homo sapiens, UniProt P40818); construct: USP8 Rhod (174–317) (UniProt: P40818); GST (cleaved yes); made in house; host or cells: Escherichia coli BL21-Gold (DE3); test: Peptide-phage display-based deep mutational scanning (DMS), USP8 Rhod domain; assay type: binding; conditions: ProP-PD pairs, bait USP8_Rhodanese__P40818_174_317; wild-type/mutant pair, wild type KIAA1614 569-584 GMERVLGGLSSPLRLL (wt_00013)
Label 1 for high-side hit_pair_ratio (at or above -1) and -1 for low-side hit_pair_ratio (below it).

Ask: Does GMEWVLGGLSSPLRLL have a reported hit_pair_ratio of at least -1?
Reply: 1

Ask: Kindly determine if hit_pair_ratio recorded for GMERVLRGLSSPLRLL is above or exactly -1.
Reply: 1

Ask: Check if hit_pair_ratio >= -1 (inclusive). Item: GAERVLGGLSSPLRLL
Reply: -1

Ask: Decide: hit_pair_ratio of GMERVTGGLSSPLRLL >= -1?
Reply: 1
